target-system: Alk (Homo sapiens)
Construct: 6×His- or GST-tagged kinase domain fragments of the corresponding RTKs expressed in baculovirus system; host or cells: baculovirus system
Sequence (Q9UM73 1116-1392 limits assumed, species assumed): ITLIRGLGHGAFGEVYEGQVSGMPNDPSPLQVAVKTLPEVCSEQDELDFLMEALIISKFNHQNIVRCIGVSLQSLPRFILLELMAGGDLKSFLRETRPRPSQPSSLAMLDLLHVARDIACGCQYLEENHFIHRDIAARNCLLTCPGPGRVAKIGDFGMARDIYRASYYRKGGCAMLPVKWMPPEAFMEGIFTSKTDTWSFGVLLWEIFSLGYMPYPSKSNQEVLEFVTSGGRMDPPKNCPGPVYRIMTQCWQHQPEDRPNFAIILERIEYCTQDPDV
experiment-notes: Tyrosine kinase assay (Kinase-Glo or AlphaScreen), Alk
condition-parameters: biochemical tyrosine kinase assay
Reported IC50 values for the following compounds.

structure-notation: CN1CCC(N2Cc3cc4nc(-c5c(NC[C@@H](O)c6cccc(Cl)c6)cc[nH]c5=O)[nH]c4cc3C2=O)CC1
result: < 0.5 µM
//
structure-notation: Cc1c(Cl)cccc1OC[C@H](O)CNc1cc[nH]c(=O)c1-c1nc2cc3c(cc2[nH]1)C(=O)N(C1CCN(CCN(C)C)CC1)C3=O
result: 0.5 to 5 µM

Would you kindly look at the next entry?
Which measured IC50 value corresponds to `Cc1ccc(OC[C@H](O)CNc2ccnc(O)c2-c2nc3cc4c(cc3[nH]2)C(=O)N([C@@H]2CCCN(C)C2)C4=O)c(C)c1` ?
> 15 µM

* * *

Reported pIC50 values for the following compounds.
target-system: UniProtKB Q9UM73
pIC50: −log10 of the molar value.

Solved cases below.
structure-notation: CN1CCC(N2Cc3cc4[nH]c(-c5c(NC[C@@H](O)COc6ccccc6Br)cc[nH]c5=O)nc4cc3C2=O)CC1
pIC50: 5.30 to 6.30
//
structure-notation: CN1CCC(N2C(=O)c3cc4nc(-c5c(NC[C@@H](O)COc6ccc7ccccc7c6)cc[nH]c5=O)[nH]c4cc3C2=O)CC1
pIC50: 5.30 to 6.30
//
structure-notation: CN1CCC(N2C(=O)c3cc4nc(-c5c(N[C@@H](CO)Cc6ccccc6)cc[nH]c5=O)[nH]c4cc3C2=O)CC1
pIC50: > 6.30
//
structure-notation: Cc1c(Cl)cccc1OC[C@H](O)CNc1cc[nH]c(=O)c1-c1nc2cc3c(cc2[nH]1)C(=O)N(C1CCN(CCCO)CC1)C3=O
pIC50: 5.30 to 6.30
//
structure-notation: COc1ccc2c(ccn2C[C@H](O)CNc2cc[nH]c(=O)c2-c2nc3cc4c(cc3[nH]2)C(=O)N(C2CCN(C)CC2)C4=O)c1
pIC50: > 6.30

Which measured pIC50 value corresponds to `O=C1c2cc3nc(-c4c(NC[C@@H](O)c5cccc(Cl)c5)cc[nH]c4=O)[nH]c3cc2C(=O)N1[C@H]1CN2CCC1CC2` ?
5.30 to 6.30

* * *

System: H929 (multiple myeloma)
experiment-notes: Cell proliferation inhibition, Cell Titer-Glo, H929
Type: cell-based
condition-parameters: Homo sapiens, NCI-H929; cell proliferation assay, H929 cells
measure-name: IC50

Which measured IC50 value corresponds to `CN1CCC(N2Cc3cc4nc(-c5c(NC[C@@H](O)COc6c(F)cccc6Cl)cc[nH]c5=O)[nH]c4cc3C2=O)CC1` ?
5 to 15 µM

* * *

target-system: InsR (Homo sapiens, UniProt P06213)
Construct: 6×His- or GST-tagged kinase domain fragments of the corresponding RTKs expressed in baculovirus system; host or cells: baculovirus system
Sequence (P06213 1023-1298 limits assumed, species assumed): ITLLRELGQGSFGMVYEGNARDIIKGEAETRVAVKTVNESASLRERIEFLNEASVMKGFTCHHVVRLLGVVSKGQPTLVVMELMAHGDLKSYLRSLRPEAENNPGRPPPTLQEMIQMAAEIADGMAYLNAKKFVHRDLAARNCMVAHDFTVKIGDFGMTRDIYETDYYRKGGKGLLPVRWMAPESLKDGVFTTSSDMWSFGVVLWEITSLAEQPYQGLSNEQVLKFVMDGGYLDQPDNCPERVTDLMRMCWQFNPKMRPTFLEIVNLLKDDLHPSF
experiment-notes: Tyrosine kinase assay (Kinase-Glo or AlphaScreen), InsR
condition-parameters: biochemical tyrosine kinase assay
pIC50: −log10 of the molar value.
measure-name: pIC50

structure-notation: CN(C)CCN1CCC(N2C(=O)c3cc4nc(-c5c(NC[C@@H](O)COc6c(F)ccc(Cl)c6F)cc[nH]c5=O)[nH]c4cc3C2=O)CC1
target-system: InsR (Homo sapiens, UniProt P06213)
pIC50: 5.30 to 6.30
--
structure-notation: CN1CCC(N2C(=O)c3cc4nc(-c5c(NC[C@@H](O)Cn6ccc7c(C#N)cccc76)cc[nH]c5=O)[nH]c4cc3C2=O)CC1
target-system: InsR (Homo sapiens, UniProt P06213)
pIC50: 5.30 to 6.30

Would you kindly look at the next entry?
Which measured pIC50 value corresponds to `O=C1c2cc3nc(-c4c(NC[C@@H](O)c5cccc(Cl)c5)cc[nH]c4=O)[nH]c3cc2C(=O)N1CCCN1CCCC1` ?
> 6.30

* * *

Parameter 'readout' = IC50; parameter 'system' = Jak2 (Homo sapiens, UniProt O60674).
Sequence (O60674 849-1124 limits assumed, species assumed): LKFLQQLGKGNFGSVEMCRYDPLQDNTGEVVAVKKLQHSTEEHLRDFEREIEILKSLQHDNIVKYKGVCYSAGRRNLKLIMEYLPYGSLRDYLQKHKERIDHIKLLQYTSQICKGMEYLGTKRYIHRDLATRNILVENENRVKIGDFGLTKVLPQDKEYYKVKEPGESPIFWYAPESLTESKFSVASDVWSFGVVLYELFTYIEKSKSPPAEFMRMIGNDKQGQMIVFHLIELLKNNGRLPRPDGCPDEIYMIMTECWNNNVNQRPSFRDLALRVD

Solved cases below.
molecule: Cc1ccc(Cl)c(OC[C@H](O)CNc2cc[nH]c(=O)c2-c2nc3cc4c(cc3[nH]2)C(=O)N(C2CCN(C)CC2)C4)c1F
result: < 500 nM

molecule: COc1cccc(OCC(O)CNc2cc[nH]c(=O)c2-c2nc3cc4c(cc3[nH]2)C(=O)N(C2CCN(C)CC2)C4=O)c1 (stereo not shown)
result: 500 to 5000 nM

molecule: CN1CCC(N2Cc3cc4nc(-c5c(NC[C@@H](O)COc6c(F)ccc(Cl)c6F)cc[nH]c5=O)[nH]c4cc3C2=O)CC1
result: < 500 nM

molecule: CN1CCC(N2Cc3cc4nc(-c5c(NC[C@@H](O)COc6ccccc6C(F)(F)F)cc[nH]c5=O)[nH]c4cc3C2=O)CC1
result: < 500 nM

molecule: COCCCN1C(=O)c2cc3nc(-c4c(NC[C@@H](O)COc5ccc(C)cc5C)cc[nH]c4=O)[nH]c3cc2C1=O
result: > 15000 nM

molecule: CC(C)CNCC(O)CNc1ccnc(O)c1-c1nc2cc3c(cc2[nH]1)C(=O)N(C1CCN(C)CC1)C3=O (stereo not shown)
result: > 15000 nM

molecule: O=C1c2cc3nc(-c4c(NC[C@@H](O)COc5c(F)ccc(Cl)c5F)cc[nH]c4=O)[nH]c3cc2C(=O)N1C1CCN(CCO)CC1
result: 500 to 5000 nM

molecule: Cc1c(Cl)cccc1OC[C@H](O)CNc1cc[nH]c(=O)c1-c1nc2cc3c(cc2[nH]1)C(=O)N(C1CCN(CCN(C)C)CC1)C3=O
result: 500 to 5000 nM

molecule: COc1ccc2c(ccn2C[C@H](O)CNc2cc[nH]c(=O)c2-c2nc3cc4c(cc3[nH]2)C(=O)N(C2CCN(C)CC2)C4=O)c1
result: 500 to 5000 nM

molecule: Cc1c(OC[C@H](O)CNc2cc[nH]c(=O)c2-c2nc3cc4c(cc3[nH]2)CN(C2CCN(C)CC2)C4=O)ccc2c1OCO2
result: < 500 nM

Notebook: pull reported IC50 for Jak2 (Homo sapiens, UniProt O60674), entry `O=C1c2cc3nc(-c4c(NC[C@@H](O)c5cccc(Cl)c5)cc[nH]c4=O)[nH]c3cc2C(=O)N1CCCn1ccnc1`
500 to 5000 nM

Then this molecule: `CN1CCC(N2C(=O)c3cc4nc(-c5c(NC[C@@H](O)COc6ccc(F)c(Cl)c6)ccnc5O)[nH]c4cc3C2=O)CC1`
500 to 5000 nM

Then this molecule: `Cc1c(Cl)cccc1OC[C@H](O)CNc1cc[nH]c(=O)c1-c1nc2cc3c(cc2[nH]1)C(=O)N(CCCN1CCCC1)C3=O`
500 to 5000 nM

* * *

Reported IC50 values for the following compounds.
target-system: UniProtKB O60674

Solved cases below.
compound: CCc1cc2c(cc1OC[C@H](O)CNc1cc[nH]c(=O)c1-c1nc3cc4c(cc3[nH]1)C(=O)N(C1CCN(C)CC1)C4)OCO2 [compound 156]
result: < 0.5 µM
//
compound: Cc1ccc(Cl)cc1OC[C@H](O)CNc1ccnc(O)c1-c1nc2cc3c(cc2[nH]1)C(=O)N(C1CCN(C)CC1)C3=O [compound 55]
result: 0.5 to 5 µM
//
compound: Cc1ccc(Cl)cc1OC[C@@H](O)CNc1ccnc(O)c1-c1nc2cc3c(cc2[nH]1)C(=O)N(C1CCN(C)CC1)C3=O [compound 56]
result: 0.5 to 5 µM

Would you kindly look at the next entry?
Notebook: pull reported IC50 for UniProtKB O60674, entry CN1CCC(N2C(=O)c3cc4nc(-c5c(NC[C@@H](O)COc6cccc(C#N)c6)ccnc5O)[nH]c4cc3C2=O)CC1 [compound 52]
0.5 to 5 µM

* * *

Parameter 'readout' = pIC50; parameter 'system' = InsR (Homo sapiens, UniProt P06213).
pIC50: −log10 of the molar value.

structure-notation: CN1CCC(N2C(=O)c3cc4nc(-c5c(NN)ccnc5O)[nH]c4cc3C2=O)CC1
target-system: InsR (Homo sapiens, UniProt P06213)
pIC50: 4.82 to 5.30

Which measured pIC50 value corresponds to `CCc1c(OC[C@H](O)CNc2cc[nH]c(=O)c2-c2nc3cc4c(cc3[nH]2)CN(C2CCN(C)CC2)C4=O)ccc2c1OCO2` ?
> 6.30

Then this compound: `COc1ccc(OC[C@H](O)CNc2cc[nH]c(=O)c2-c2nc3cc4c(cc3[nH]2)CN(C2CCN(C)CC2)C4=O)c(Cl)c1`
> 6.30

Then this compound: `CN1CCC(N2Cc3cc4nc(-c5c(NC[C@@H](O)COc6cc(F)ccc6Cl)cc[nH]c5=O)[nH]c4cc3C2=O)CC1`
> 6.30

// provenance: patent US8063225B2
